- Test system: Amaranthus retroflexus (AMARE)
- procedure-summary: A. Herbicidal pre-emergence efficacy, AMARE
- Assay type: in vivo
- particulars: 80 g/ha
recorded-metric: Pre-emergence efficacy against AMARE in % (%)
Hi! Could you send only the number? It should be in %, unit omitted.

Return Pre-emergence efficacy against AMARE in % measured with Amaranthus retroflexus (AMARE) given this molecule: O=S(=O)(CCCC(F)(F)F)Oc1c(Cl)cccc1Oc1ncc(Cl)cn1 [Example I-39]
100

Subsequent entry: O=S(=O)(CCC(F)(F)F)Oc1c(F)cccc1Oc1ncc(Cl)cn1 [Example I-48]
90

Repeat with O=S(=O)(CCCCCl)Oc1ccccc1Oc1ncc(Cl)cn1 [Example I-15]
100

How about O=S(=O)(CCCC(F)(F)F)Oc1ccccc1Oc1ncc(Cl)cn1 [Example I-10] ?
100

Next: O=S(=O)(CCCC(F)F)Oc1c(F)cccc1Oc1ncc(Cl)cn1 [Example I-56]
100

---

- Test system: Kochia scoparia (KCHSC)
- procedure-summary: A. Herbicidal pre-emergence efficacy, KCHSC
- Format: in vivo
- particulars: pre-emergence, dosage 1280 g/ha
recorded-metric: Pre-emergence efficacy against KCHSC (%)
Field format: number, assumed %, no unit text.

compound	Pre-emergence efficacy against KCHSC [%]
Cc1cccc(Oc2ncc(Cl)cn2)c1OS(=O)(=O)CCCC(F)(F)C(F)(F)F	90
C=CCS(=O)(=O)Oc1ccccc1Oc1ncc(Cl)cn1	100
O=S(=O)(CCC(F)(F)F)Oc1c(F)cccc1Oc1ncc(F)cn1	100
O=S(=O)(CCC1CC1)Oc1c(F)cccc1Oc1ncc(Cl)cn1	100
O=S(=O)(CCCCl)Oc1ccccc1Oc1ncc(F)cn1	100

// lookup Pre-emergence efficacy against KCHSC for O=S(=O)(CCCC(F)(F)F)Oc1c(Br)cccc1Oc1ncc(F)cn1
100

What about this compound? O=S(=O)(Oc1ccccc1Oc1ncc(Cl)cn1)C1CC1
100

Also need O=S(=O)(CC1CC(F)(F)C1)Oc1c(F)cccc1Oc1ncc(Cl)cn1 , thanks.
100

And then O=S(=O)(CCCC(F)(F)F)Oc1c(Cl)cccc1Oc1ncc(Cl)cn1 , what is it?
100

Follow-up entry: CCCCS(=O)(=O)Oc1ccccc1Oc1ncc(Cl)cn1
100

Quick one: O=S(=O)(CCC(F)(F)F)Oc1c(F)cccc1Oc1ncc(Br)cn1
100

Request: O=S(=O)(CCCC(F)(F)F)Oc1c(F)cccc1Oc1ncc(F)cn1
100

Now the compound O=S(=O)(CCC(F)=C(F)F)Oc1c(Br)cccc1Oc1ncc(Cl)cn1
90

How about O=S(=O)(CCC(F)(F)F)Oc1c(Br)cccc1Oc1ncc(Cl)cn1 ?
100

Try the compound O=S(=O)(CC1CCCO1)Oc1c(F)cccc1Oc1ncc(Cl)cn1 (stereo not shown)
90

Further, for O=S(=O)(CCCCl)Oc1ccccc1Oc1ncc(Cl)cn1 ?
100

Next compound: O=S(=O)(CCCCl)Oc1cccc(F)c1Oc1ncc(Cl)cn1
100

---

Each item that follows carries a reported Post-emergence efficacy against ALOMY in %.
- Tested on: Alopecurus myosuroides (ALOMY)
- procedure-summary: E. Herbicidal post-emergence efficacy, ALOMY
- Format: in vivo
- particulars: application rate 80 g/ha
Please answer using a numeric value trailed by its unit.

# get_value(readout='Post-emergence efficacy against ALOMY in %', item= O=S(=O)(CCCC(F)(F)F)Oc1c(F)cccc1Oc1ncc(F)cn1 [Example I-42] )
90%

Then this compound: O=S(=O)(CCCCl)Oc1ccccc1Oc1ncc(F)cn1 [Example I-5]
80%

Entry to check: O=S(=O)(CC1CC(F)(F)C1)Oc1c(F)cccc1Oc1ncc(Cl)cn1 [Example I-53]
90%

Another compound: O=S(=O)(CCCC(F)(F)F)Oc1ccccc1Oc1ncc(Cl)cn1 [Example I-10]
90%

---

- Tested on: Alopecurus myosuroides (ALOMY)
- procedure-summary: C. Herbicidal pre-emergence efficacy, ALOMY
- Format: in vivo
- particulars: 320 g/ha, scored after about 3 weeks
- Text: Seeds of monocotyledonous and dicotyledonous weed plants and crop plants were placed in plastic or organic planting pots and covered with soil. […] After about 3 weeks, the efficacy of the preparations was scored visually in comparison with untreated controls as percentages. […]
recorded-metric: Pre-emergence efficacy against ALOMY (%)
Report as a plain number; the unit % is understood.

A selection of reference data follows.
compound	recorded-metric	recorded-result
O=S(=O)(CCCC(F)(F)F)Oc1ccccc1Oc1ncc(Cl)cn1 [Example I-10]	Pre-emergence efficacy against ALOMY	100
CC(C)CCS(=O)(=O)Oc1ccccc1Oc1ncc(Cl)cn1 [Example I-25]	Pre-emergence efficacy against ALOMY	80
O=S(=O)(CCCCl)Oc1ccccc1Oc1ncc(Cl)cn1 [Example I-2]	Pre-emergence efficacy against ALOMY	100
O=S(=O)(CCC(F)(F)F)Oc1c(F)cccc1Oc1ncc(Cl)cn1 [Example I-48]	Pre-emergence efficacy against ALOMY	100
O=S(=O)(CC1CC(F)(F)C1)Oc1c(F)cccc1Oc1ncc(Cl)cn1 [Example I-53]	Pre-emergence efficacy against ALOMY	100
O=S(=O)(CCC(F)=C(F)F)Oc1c(F)cccc1Oc1ncc(Cl)cn1 [Example I-70]	Pre-emergence efficacy against ALOMY	100
O=S(=O)(CCCC(F)(F)F)Oc1c(Cl)cccc1Oc1ncc(Br)cn1 [Example I-34]	Pre-emergence efficacy against ALOMY	80
O=S(=O)(CCl)Oc1ccccc1Oc1ncc(Cl)cn1 [Example I-9]	Pre-emergence efficacy against ALOMY	80
Cc1cccc(Oc2ncc(F)cn2)c1OS(=O)(=O)CCCC(F)(F)F [Example I-46]	Pre-emergence efficacy against ALOMY	100
O=S(=O)(CCCC(F)F)Oc1c(F)cccc1Oc1ncc(Cl)cn1 [Example I-56]	Pre-emergence efficacy against ALOMY	100

# get_value(readout='Pre-emergence efficacy against ALOMY', item= Cc1cccc(Oc2ncc(Cl)cn2)c1OS(=O)(=O)CCC(F)=C(F)F [Example I-71] )
80

Moving on to the next compound: Cc1cccc(Oc2ncc(Cl)cn2)c1OS(=O)(=O)CCCCl [Example I-11]
90

Now this one: O=S(=O)(CCCC(F)(F)F)Oc1c(F)cccc1Oc1ncc(Cl)cn1 [Example I-49]
100

Next: Cc1cccc(Oc2ncc(F)cn2)c1OS(=O)(=O)CCC(F)(F)F [Example I-45]
100

---

Listed molecules paired with reported Post-emergence efficacy against ABUTH in %
- System: Abutilon theophrasti (ABUTH)
- procedure-summary: B. Herbicidal post-emergence efficacy, ABUTH
- Format: in vivo
- particulars: 1280 g/ha, rated visually after about 3 weeks
Kindly answer with a numeric value in %, unit omitted.

molecule	recorded-result
CC(C)CCS(=O)(=O)Oc1ccccc1Oc1ncc(Cl)cn1 [Example I-25]	100

Next:
// returns reported Post-emergence efficacy against ABUTH in % for input O=S(=O)(CC1CC(F)(F)C1)Oc1c(F)cccc1Oc1ncc(Cl)cn1 [Example I-53]
90

---

Below, each entry is listed with its recorded Pre-emergence efficacy against PHBPU.
- Tested on: Pharbitis purpurea (PHBPU)
- procedure-summary: C. Herbicidal pre-emergence efficacy, PHBPU
- Type: in vivo
- particulars: 320 g/ha, scored after about 3 weeks
Give your result in % as a bare value.

compound	Pre-emergence efficacy against PHBPU [%]
O=S(=O)(CCC(F)(F)F)Oc1c(F)cccc1Oc1ncc(F)cn1 [Example I-47]	100

Record request: Pre-emergence efficacy against PHBPU value, item CCCS(=O)(=O)Oc1ccccc1Oc1ncc(Cl)cn1 [Example I-3]
80

Also O=S(=O)(CC1CC(F)(F)C1)Oc1c(F)cccc1Oc1ncc(Cl)cn1 [Example I-53] , if possible.
100

---

Quick list: Pre-emergence efficacy against VERPE in % per entry.
- System: Veronica persica (VERPE)
- procedure-summary: A. Herbicidal pre-emergence efficacy, VERPE
- Type: in vivo
- particulars: 1280 g/ha
Answer format: numeric, % implied, no suffix.

compound	recorded-result
Cc1cccc(Oc2ncc(Cl)cn2)c1OS(=O)(=O)CCCC(F)(F)C(F)(F)F [Example I-69]	100
O=S(=O)(CCC(F)(F)F)Oc1c(Cl)cccc1Oc1ncc(Cl)cn1 [Example I-38]	100
CCCS(=O)(=O)Oc1ccccc1Oc1ncc(Cl)cn1 [Example I-3]	100
O=S(=O)(CCCC(F)(F)C(F)(F)F)Oc1c(Br)cccc1Oc1ncc(Cl)cn1 [Example I-67]	100
Cc1cccc(Oc2ncc(Cl)cn2)c1OS(=O)(=O)CCC(F)(F)F [Example I-29]	100

Switching to the query record.
What value of Pre-emergence efficacy against VERPE in % on Veronica persica (VERPE) does O=S(=O)(CC1CC1(Cl)Cl)Oc1c(F)cccc1Oc1ncc(Cl)cn1 (stereo not shown) [Example I-57] have?
100

---

- Test system: Amaranthus retroflexus (AMARE)
- procedure-summary: A. Herbicidal pre-emergence efficacy, AMARE
- Type: in vivo
- particulars: 80 g/ha
recorded-metric: Pre-emergence efficacy against AMARE in %

Worked cases, answers included:
smi	target	recorded-result
O=S(=O)(CCC(F)(F)F)Oc1c(Cl)cccc1Oc1ncc(Cl)cn1	Amaranthus retroflexus (AMARE)	100%
CCS(=O)(=O)Oc1ccccc1Oc1ncc(Cl)cn1	Amaranthus retroflexus (AMARE)	100%
N#Cc1cccc(Oc2ncc(Cl)cn2)c1OS(=O)(=O)CC1CC(F)(F)C1	Amaranthus retroflexus (AMARE)	90%

Recall the recorded Pre-emergence efficacy against AMARE in % for N#Cc1cc(Cl)cnc1Oc1ccccc1OS(=O)(=O)CCCCl with Amaranthus retroflexus (AMARE) and state it.
100%

// same read-out, input: CC(C)CCS(=O)(=O)Oc1ccccc1Oc1ncc(Cl)cn1
90%
